Recorded shrunken log2 fold change for the following sequences
- Tested on: Escherichia coli TOP10;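 note: peptides expressed intracellularly from a pBAD plasmid library in pooled LB shake-flask culture, induced with 0.3% L-arabinose, DNA abundance read by NGS, three biological replicates, DESeq2 with apeglm shrinkage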
- ASSAY_EXPLANATION: shrunken log2 fold change of peptide-encoding DNA abundance (4.5 h post-induction vs induction); higher = less antimicrobial activity (less host growth inhibition)
- CONDITION_SUMMARY: time post-induction: 4.5 h; library: site-saturation at positions 5, 18, 19, 20
TEST_READOUT: shrunken log2 fold change

{"columns": ["SEQ_TEXT", "REPORTED_RESULT"],
 "data": [
  ["RRIRERPPRLPRPRPRPSLWPRP", -0.151],
  ["RRIRKRPPRLPRPRPRPRHPPRP", 0.412],
  ["RRIRYRPPRLPRPRPRPMIEPRP", 0.00164],
  ["RRIRYRPPRLPRPRPRPGYHPRP", -0.00992],
  ["RRIRLRPPRLPRPRPRPQFRPRP", -0.244],
  ["RRIRMRPPRLPRPRPRPNNDPRP", -0.0943],
  ["RRIRERPPRLPRPRPRPFQEPRP", -0.0402],
  ["RRIRKRPPRLPRPRPRPSWYPRP", -0.519],
  ["RRIRTRPPRLPRPRPRPDHNPRP", -0.471],
  ["RRIRCRPPRLPRPRPRPCGNPRP", -0.278],
  ["RRIRMRPPRLPRPRPRPRVPPRP", 0.83],
  ["RRIRFRPPRLPRPRPRPRAYPRP", -0.23],
  ["RRIRLRPPRLPRPRPRPCSHPRP", -0.226],
  ["RRIRARPPRLPRPRPRPDNWPRP", 0.283],
  ["RRIRDRPPRLPRPRPRPFMGPRP", -0.27],
  ["RRIRQRPPRLPRPRPRPLSNPRP", -0.109],
  ["RRIRQRPPRLPRPRPRPIMIPRP", -0.452],
  ["RRIRPRPPRLPRPRPRPDSMPRP", -0.326],
  ["RRIRSRPPRLPRPRPRPKQIPRP", 0.0712],
  ["RRIRIRPPRLPRPRPRPLTQPRP", -0.648],
  ["RRIRERPPRLPRPRPRPGISPRP", -0.017],
  ["RRIRFRPPRLPRPRPRPYHVPRP", 0.0272],
  ["RRIRERPPRLPRPRPRPNKYPRP", 0.202],
  ["RRIRTRPPRLPRPRPRPRPCPRP", -0.0153],
  ["RRIRRRPPRLPRPRPRPVMWPRP", 0.0562],
  ["RRIRGRPPRLPRPRPRPGRQPRP", 0.654],
  ["RRIRWRPPRLPRPRPRPENWPRP", 0.254],
  ["RRIRNRPPRLPRPRPRPWQWPRP", 0.144],
  ["RRIRKRPPRLPRPRPRPKGEPRP", 0.201],
  ["RRIRYRPPRLPRPRPRPKKVPRP", -0.141],
  ["RRIRWRPPRLPRPRPRPVFKPRP", 0.0598],
  ["RRIRCRPPRLPRPRPRPKLQPRP", 0.155],
  ["RRIRERPPRLPRPRPRPGDIPRP", -0.072],
  ["RRIRVRPPRLPRPRPRPHESPRP", 0.22],
  ["RRIRCRPPRLPRPRPRPVSNPRP", 0.0201],
  ["RRIRCRPPRLPRPRPRPCLIPRP", -0.404],
  ["RRIRLRPPRLPRPRPRPHEGPRP", -0.00992],
  ["RRIRCRPPRLPRPRPRPIARPRP", 0.19],
  ["RRIRWRPPRLPRPRPRPNIVPRP", -0.112],
  ["RRIRNRPPRLPRPRPRPSWIPRP", -0.425],
  ["RRIRSRPPRLPRPRPRPDVSPRP", -0.0357],
  ["RRIRMRPPRLPRPRPRPRCLPRP", -0.0778],
  ["RRIRQRPPRLPRPRPRPCAFPRP", -0.254],
  ["RRIRCRPPRLPRPRPRPHDCPRP", -0.0825],
  ["RRIRERPPRLPRPRPRPWFEPRP", -0.0941],
  ["RRIRRRPPRLPRPRPRPHQAPRP", -0.019],
  ["RRIRLRPPRLPRPRPRPAPYPRP", 0.0426],
  ["RRIRWRPPRLPRPRPRPWHYPRP", -0.0627],
  ["RRIRFRPPRLPRPRPRPHPPPRP", 1.27],
  ["RRIRTRPPRLPRPRPRPNVSPRP", -0.0389],
  ["RRIRYRPPRLPRPRPRPWACPRP", -0.263],
  ["RRIRLRPPRLPRPRPRPEDEPRP", 0.00911],
  ["RRIRPRPPRLPRPRPRPAQRPRP", 0.104],
  ["RRIRPRPPRLPRPRPRPGVSPRP", -0.0412],
  ["RRIRWRPPRLPRPRPRPFCTPRP", -0.137],
  ["RRIRFRPPRLPRPRPRPKAKPRP", -0.016],
  ["RRIRLRPPRLPRPRPRPCCSPRP", -0.144],
  ["RRIRKRPPRLPRPRPRPALRPRP", 0.455],
  ["RRIRYRPPRLPRPRPRPVFEPRP", 0.0623],
  ["RRIRNRPPRLPRPRPRPWQEPRP", -0.0629],
  ["RRIRWRPPRLPRPRPRPQFGPRP", 0.0671],
  ["RRIRPRPPRLPRPRPRPITLPRP", 0.0118],
  ["RRIRFRPPRLPRPRPRPEQDPRP", 1.57]
]}
